# Tested on: KU1919.1
# ASSAY METHOD TEXT: Cell Titer Glo (CTG) proliferation assay, KU1919
# Type: cell-based
# TEST PARAMETERS: Homo sapiens, KU-19-19; KU1919.1 cells, 72.0 hrs.; read-out: AVE CTG Proliferation KU1919.1 72.0 hrs.
TEST READOUT: IC50

[[record]]
compound = "CC(C)(C)OC(=O)N1CCC(OC2CCN(CC(=O)N3CCN(CC[C@H](NC(=O)C4(N)CCN(c5ncnc6[nH]ccc56)CC4)c4ccc(Cl)cc4)CC3)CC2)CC1"
reported_result = "1000 to 5000 nM"


Any idea what IC50 was measured for NC1(C(=O)N[C@@H](CCN2CCN(C(=O)CN3CCC(OC4CCN(C(=O)[C@H](NC(=O)c5cccc(C6CCCN(C(=O)CNC7CC7)C6)c5)C5CCCCC5)CC4)CC3)CC2)c2ccc(Cl)cc2)CCN(c2ncnc3[nH]ccc23)CC1 (stereo partly drawn) ? 1000 to 5000 nM

Record request: IC50 value, item CC(C)N(CCNC(=O)CN1CCC(CN2CCN(C(=O)[C@H](NC(=O)c3cccc(C4CCCN(C(=O)CNCc5ccc(F)cc5F)C4)c3)C3CCCCC3)CC2)CC1)C[C@@H](C(=O)N1CCN(c2ncnc3c2[C@H](C)C[C@H]3O)CC1)c1ccc(Cl)cc1 (stereo partly drawn) 1000 to 5000 nM

---

# Test system: KU1919.1
# ASSAY METHOD TEXT: Cell Titer Glo (CTG) proliferation assay, KU1919
# Format: cell-based
# TEST PARAMETERS: Homo sapiens, KU-19-19; KU1919.1 cells, 72.0 hrs.; read-out: AVE CTG Proliferation KU1919.1 72.0 hrs.
pIC50: −log10 of the molar value.
pIC50 by entry:

[[record]]
molecule = "CCc1cccc(-c2cnc(C(=O)NCCOCCNCC[C@H](NC(=O)C3(N)CCN(c4ncnc5[nH]ccc45)CC3)c3ccc(Cl)cc3)c(NC(=O)OC(C)(C)C)c2)c1 [Compound I-301]"
test_readout = "pIC50"
reported_result = "5.30 to 6.00"

[[record]]
molecule = "CC(C)(C)OC(=O)N[C@@H](C(=O)N1CCN(CC23CCC(C(=O)N4CCN(CC[C@H](NC(=O)C5(N)CCN(c6ncnc7[nH]ccc67)CC5)c5ccc(Cl)cc5)CC4)(CC2)CO3)CC1)C1CCCCC1 [Compound I-308]"
test_readout = "pIC50"
reported_result = "5.30 to 6.00"

[[record]]
molecule = "C[C@@H]1C[C@@H](O)c2ncnc(N3CCN(C(=O)C(CN4CCC(CN5CCN(C(=O)[C@H](NC(=O)c6cccc([C@@H]7CCCN(C(=O)C8CC8)C7)c6F)C6CCCCC6)CC5)CC4)c4ccc(Cl)cc4)CC3)c21 (stereo partly shown) [Compound I-278]"
test_readout = "pIC50"
reported_result = "6.00 to 6.30"


Endpoint output: pIC50 of NC1(C(=O)N[C@@H](CCOCCN2CCC(OC3CCN(C(=O)[C@H](NC(=O)c4cccc(C5CCCN(C(=O)CNCc6ccc(F)cc6F)C5)c4)C4CCCCC4)CC3)CC2)c2ccc(Cl)cc2)CCN(c2ncnc3[nH]ccc23)CC1 (stereo partly shown) [Compound I-236] . Value? 6.00 to 6.30
